Reference source for all entries: ChEMBL document CHEMBL1139027

System name: Peroxisome proliferator-activated receptor alpha (Homo sapiens, UniProt Q07869)
Sequence (Q07869 whole entry): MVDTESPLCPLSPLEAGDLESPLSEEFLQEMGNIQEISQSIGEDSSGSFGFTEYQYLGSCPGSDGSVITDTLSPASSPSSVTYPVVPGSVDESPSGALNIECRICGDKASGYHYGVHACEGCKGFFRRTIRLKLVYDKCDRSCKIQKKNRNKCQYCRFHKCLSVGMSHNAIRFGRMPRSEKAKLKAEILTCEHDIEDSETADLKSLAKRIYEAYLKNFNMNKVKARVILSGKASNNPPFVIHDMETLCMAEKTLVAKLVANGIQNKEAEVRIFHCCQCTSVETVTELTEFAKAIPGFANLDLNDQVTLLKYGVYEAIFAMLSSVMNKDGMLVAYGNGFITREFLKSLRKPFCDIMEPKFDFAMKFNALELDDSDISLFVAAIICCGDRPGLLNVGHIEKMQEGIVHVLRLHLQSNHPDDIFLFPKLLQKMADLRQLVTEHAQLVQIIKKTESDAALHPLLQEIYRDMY
Protocol details: Transactivation by human PPAR alpha in COS1 cells
Format: functional, cell-based, COS-1
Setup conditions: read-out: EC50
pEC50: −log10 of the molar value.
Is pEC50 at least 8? Then Met. If not, Not met.

Compound | Answer label
CCCC(Cc1ccc(OCCCOc2ccc(Oc3ccc(F)cc3)cc2Cl)cc1)C(=O)O (centres undefined) | Not met
CC[C@@](C)(Oc1ccc(OCCCOc2ccc(Oc3ccc(F)cc3)cc2Cl)cc1)C(=O)O | Not met
CC(C)(Oc1cccc(OCCCOc2ccc(Oc3ccc(F)cc3)cc2Cl)c1)C(=O)O | Not met
CC[C@@](C)(Cc1ccc(OCCCOc2ccccc2Cl)cc1)C(=O)O | Not met
CCC(CC)(Oc1ccc(OCCCOc2ccc(Oc3ccc(F)cc3)cc2Cl)cc1)C(=O)O | Met
CC(C)(Oc1ccc(OCCCCOc2ccc(Oc3ccc(F)cc3)cc2Cl)cc1)C(=O)O | Not met
CC(C)(Oc1ccc(OCCOc2ccc(Oc3ccc(F)cc3)cc2Cl)cc1)C(=O)O | Not met
CC[C@@](C)(Cc1ccc(OCCCOc2ccc(CC(F)(F)F)cc2Cl)cc1)C(=O)O | Met
